experiment: Cytotoxicity against human HeLa cells expressing CD4 and CCR5 assessed as cell viability after 6 days by XTT assay; format: cell-based
Reported values of CC50 at 144 h for individual entries
quantity_name: CC50 at 144 h

In [3]: df
Out[3]:
                                smiles_code  quantity_name  observed_measurement
0  O=C(C(=O)N1CCN(C(=O)c2ccccc2)CC1)c1c[nH]c2c(-c3cc[nH]n3)ncnc12  CC50 at 144 h              > 300 µM
1  O=C(C(=O)N1CCN(C(=O)c2ccccc2)CC1)c1c[nH]c2c(-n3cncn3)ncnc12  CC50 at 144 h              > 300 µM
2  O=C(C(=O)N1CCN(C(=O)c2ccccc2)CC1)c1c[nH]c2c(-c3ccnnc3)ncnc12  CC50 at 144 h              > 300 µM
